biological target: Paired box protein Pax-8 (Homo sapiens, UniProt Q06710); test: inhibitors of PAX8-driven TPO luciferase reporter, dose response, RMG-I cells, cherry-pick (AID 687027); type: functional, cell-based;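 also: luciferase reporter driven by Pax8 target thyroperoxidase promoter measured by SteadyGlo luminescence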
Sequence (Q06710 whole entry): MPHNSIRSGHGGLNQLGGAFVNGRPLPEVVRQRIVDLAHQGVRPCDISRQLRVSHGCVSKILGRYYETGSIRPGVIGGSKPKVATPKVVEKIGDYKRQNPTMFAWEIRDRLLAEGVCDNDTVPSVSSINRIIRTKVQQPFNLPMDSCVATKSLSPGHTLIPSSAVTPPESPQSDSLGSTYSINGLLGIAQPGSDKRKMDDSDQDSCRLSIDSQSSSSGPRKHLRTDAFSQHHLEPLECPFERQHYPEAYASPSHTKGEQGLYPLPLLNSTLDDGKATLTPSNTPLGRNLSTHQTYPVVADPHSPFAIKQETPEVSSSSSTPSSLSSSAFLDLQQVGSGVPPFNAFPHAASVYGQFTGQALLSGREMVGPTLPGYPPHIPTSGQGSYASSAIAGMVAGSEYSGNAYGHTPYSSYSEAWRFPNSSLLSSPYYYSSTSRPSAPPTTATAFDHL
Active and inactive are the calls of the source. No rule for the calls is given here.
Entries and their AC50 values follow.
OBSERVED_PROPERTY: AC50

>  <SMILES_STRING>
COc1ccc(C(=O)N/N=C/c2ccc(OC)c(CN3CCN(c4ccc(F)cc4)CC3)c2)cc1

>  <RESULT>
35.8 µM (active)

$$$$
>  <SMILES_STRING>
Cc1ccc(-c2csc3ncnc(Sc4nnc(CN5CCCCCC5=O)o4)c23)cc1

>  <RESULT>
5 µM (active)

$$$$
>  <SMILES_STRING>
CCCC#Cc1ccc([C@H]2[C@@H](C#N)N(C(=O)C3CCCCC3)[C@H]2CO)cc1

>  <RESULT>
12.7 µM (active)

$$$$
>  <SMILES_STRING>
C[C@]12CC[C@H]3[C@@H](CC[C@@]4(O)C[C@@H](O)CC[C@]34C=O)[C@]1(O)CC[C@@H]2C1=CC(=O)OC1

>  <RESULT>
3.39 µM (active)

$$$$

---

target: UniProtKB P03070; format: functional, Betapolyomavirus macacae
Sequence (P03070 whole entry): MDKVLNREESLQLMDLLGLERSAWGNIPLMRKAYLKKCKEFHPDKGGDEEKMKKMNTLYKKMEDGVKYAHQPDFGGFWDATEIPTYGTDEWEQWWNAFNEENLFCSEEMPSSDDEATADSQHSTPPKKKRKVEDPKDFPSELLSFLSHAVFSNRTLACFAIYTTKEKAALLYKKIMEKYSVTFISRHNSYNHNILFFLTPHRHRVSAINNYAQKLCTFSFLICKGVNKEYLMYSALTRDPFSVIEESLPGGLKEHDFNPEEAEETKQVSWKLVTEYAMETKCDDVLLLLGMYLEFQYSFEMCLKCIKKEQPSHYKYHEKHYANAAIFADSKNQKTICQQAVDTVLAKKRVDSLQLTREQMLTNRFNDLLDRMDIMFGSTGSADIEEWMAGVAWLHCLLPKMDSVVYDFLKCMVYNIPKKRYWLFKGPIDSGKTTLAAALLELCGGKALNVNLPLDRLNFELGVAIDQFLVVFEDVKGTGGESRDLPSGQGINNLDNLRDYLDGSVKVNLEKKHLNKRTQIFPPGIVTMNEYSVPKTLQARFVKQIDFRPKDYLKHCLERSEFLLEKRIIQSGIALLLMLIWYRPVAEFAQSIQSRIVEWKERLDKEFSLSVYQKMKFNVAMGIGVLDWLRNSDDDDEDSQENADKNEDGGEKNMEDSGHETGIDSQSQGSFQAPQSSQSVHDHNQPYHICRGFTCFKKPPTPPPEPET
Calls of active or inactive are those of the source.
Entries and their IC50 values follow.

>  <SMILES_STRING>
O=C1OCC/C1=C\c1ccc(O)cc1

>  <IC50>
17.4 µM (active)

$$$$
>  <SMILES_STRING>
O=C(CCc1ccc(O)c(O)c1)NN=C(S)Nc1ccc(Br)cc1Cl

>  <IC50>
> 100 µM (active)

$$$$
>  <SMILES_STRING>
CCOC(=O)c1c(NC(=O)/C=C/C(=O)O)sc(C)c1-c1ccc(C(C)(C)C)cc1

>  <IC50>
20.8 µM (active)

$$$$
>  <SMILES_STRING>
Cc1ccc(/C=C2/SC(=O)NC2=S)o1

>  <IC50>
> 100 µM (active)

$$$$
>  <SMILES_STRING>
O=C(c1ccccc1)N1CCN(c2ccc(NCc3ccc4c(c3)OCO4)cc2)CC1

>  <IC50>
> 100 µM (active)

$$$$
>  <SMILES_STRING>
O=C(COc1cccc(C(F)(F)F)c1)N1CCN(c2ccc(O)cc2)CC1

>  <IC50>
9.68 µM (active)

$$$$
>  <SMILES_STRING>
Oc1ccc(-c2cn3ccccc3n2)cc1

>  <IC50>
> 100 µM (active)

$$$$
>  <SMILES_STRING>
Cc1nc2ccc(NC(=O)c3cc([N+](=O)[O-])cc([N+](=O)[O-])c3Cl)cc2s1

>  <IC50>
59.9 µM (active)

$$$$

---

Entries and their IC50 values follow.
target: UniProtKB P29990; assay: Dengue-2 NS5 methyltransferase inhibitors, primary screen, biochemical, confirmation dose response (AID 588689); type: functional
Sequence (P29990 2492-3391 limits assumed): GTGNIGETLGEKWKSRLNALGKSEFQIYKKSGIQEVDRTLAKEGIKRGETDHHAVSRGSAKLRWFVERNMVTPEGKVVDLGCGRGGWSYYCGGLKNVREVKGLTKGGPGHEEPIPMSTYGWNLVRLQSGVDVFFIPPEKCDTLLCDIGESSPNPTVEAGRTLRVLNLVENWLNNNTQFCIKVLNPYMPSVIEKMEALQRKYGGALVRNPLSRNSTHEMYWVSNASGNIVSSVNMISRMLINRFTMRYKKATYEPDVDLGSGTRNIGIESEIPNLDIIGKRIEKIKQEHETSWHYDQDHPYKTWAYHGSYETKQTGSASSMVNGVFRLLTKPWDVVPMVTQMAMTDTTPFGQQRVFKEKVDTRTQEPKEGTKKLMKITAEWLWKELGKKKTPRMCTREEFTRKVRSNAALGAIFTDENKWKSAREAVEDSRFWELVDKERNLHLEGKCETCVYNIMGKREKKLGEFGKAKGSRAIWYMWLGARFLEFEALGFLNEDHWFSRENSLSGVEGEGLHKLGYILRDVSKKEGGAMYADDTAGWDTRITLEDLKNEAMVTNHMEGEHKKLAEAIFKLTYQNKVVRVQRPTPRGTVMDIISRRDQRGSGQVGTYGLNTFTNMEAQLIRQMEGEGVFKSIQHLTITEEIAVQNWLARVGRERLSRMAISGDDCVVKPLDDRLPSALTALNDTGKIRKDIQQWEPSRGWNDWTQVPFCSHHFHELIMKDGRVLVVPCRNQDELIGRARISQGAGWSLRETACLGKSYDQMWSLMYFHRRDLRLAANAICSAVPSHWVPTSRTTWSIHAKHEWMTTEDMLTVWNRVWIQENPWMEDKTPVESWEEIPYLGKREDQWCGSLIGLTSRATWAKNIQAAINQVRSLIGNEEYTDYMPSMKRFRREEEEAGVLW
Calls of active or inactive are those of the source. No rule for the calls is given here.

>  <SMILES_STRING>
CCc1ccc(NC2=NC(=O)/C(=C/c3cc(Br)c(OCC(=O)O)c(OC)c3)S2)cc1

>  <TARGET_UNDER_TEST>
UniProtKB P29990

>  <IC50>
39.5 µM (active)

$$$$
>  <SMILES_STRING>
Cc1nc2ccc(NC(=O)c3cc([N+](=O)[O-])cc([N+](=O)[O-])c3Cl)cc2s1

>  <TARGET_UNDER_TEST>
UniProtKB P29990

>  <IC50>
59.6 µM (active)

$$$$
>  <SMILES_STRING>
CCOC(=O)c1c(NC(=O)/C=C/C(=O)O)sc(C)c1-c1ccc(C(C)(C)C)cc1

>  <TARGET_UNDER_TEST>
UniProtKB P29990

>  <IC50>
25.6 µM (active)

$$$$
>  <SMILES_STRING>
O=C(O)c1ccccc1C(=O)c1ccc(Sc2ccc(Cl)cc2)c([N+](=O)[O-])c1

>  <TARGET_UNDER_TEST>
UniProtKB P29990

>  <IC50>
35.1 µM (active)

$$$$
>  <SMILES_STRING>
O=C(O)c1ccc(NS(=O)(=O)c2ccc3c(c2)C(=O)c2cc(S(=O)(=O)Nc4ccc(C(=O)O)cc4)ccc2-3)cc1

>  <TARGET_UNDER_TEST>
UniProtKB P29990

>  <IC50>
95.9 µM (active)

$$$$
>  <SMILES_STRING>
N#C/C(=C\c1cccc(Cl)c1)C(=O)c1ccccc1

>  <TARGET_UNDER_TEST>
UniProtKB P29990

>  <IC50>
64.1 µM (active)

$$$$

The reported measurements were obtained from ChEMBL document CHEMBL1201862.
